Values from ChEMBL document CHEMBL1146016

I'd appreciate it if you could supply remaining at 0.5 h values for the items below.
assay: Metabolic stability in rat liver microsome after 30 min at 37 degreeC; assay type: ADME; settings: liver microsomes, read-out: Stability
Report only the number, with the unit % understood.

Item under review: CN(C)C(=O)c1cccc(/N=c2\c(O)c(O)\c2=N/C2CCCC2)c1O . Reported remaining at 0.5 h?
56

Then CN(C)C(=O)c1cccc(/N=c2\c(O)c(O)\c2=N/c2ccccc2)c1O ?
67

Then CCC(CC)/N=c1\c(O)c(O)\c1=N/c1cccc(C(=O)N(C)C)c1O ?
75

---

Target: C-X-C chemokine receptor type 2 (Homo sapiens, UniProt P25025)
Sequence (P25025 whole entry): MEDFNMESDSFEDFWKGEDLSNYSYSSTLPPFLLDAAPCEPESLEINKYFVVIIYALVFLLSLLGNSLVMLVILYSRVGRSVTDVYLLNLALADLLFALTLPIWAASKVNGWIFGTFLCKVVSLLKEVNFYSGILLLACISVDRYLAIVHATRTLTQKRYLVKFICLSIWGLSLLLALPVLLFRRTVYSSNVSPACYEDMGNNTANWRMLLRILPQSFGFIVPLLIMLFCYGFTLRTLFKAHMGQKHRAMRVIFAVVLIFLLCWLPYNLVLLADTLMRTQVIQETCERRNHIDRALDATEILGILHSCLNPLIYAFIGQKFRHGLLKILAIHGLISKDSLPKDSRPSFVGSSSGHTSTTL
Experiment: Displacement of [125I]IL8 from human CXCR2 expressed in CHO cells
measured_metric: pIC50
# log scale: pIC50 equals minus log10 of the concentration in mol/L

Item under review: CN(C)C(=O)c1cccc(/N=c2\c(O)c(O)\c2=N/CCc2ccccc2)c1O . Reported pIC50?
6.03

Then CN(C)C(=O)c1cc(Cl)cc(/N=c2\c(O)c(O)\c2=N/c2ccccc2)c1O ?
8.70

Then CN(C)C(=O)c1cccc(/N=c2\c(O)c(O)\c2=N/Cc2ccco2)c1O ?
7.39

Then CN(C)C(=O)c1cccc(/N=c2\c(O)c(O)\c2=N/C2CCCCC2)c1O ?
8.00
